study-system: GalNAc(b1-3)Gal
method-description: glycan array binding signal (z-score within array); higher = stronger binding
measurement-setup: glycan notation: IUPAC condensed, linker removed
Many of the other results were omitted from the sample, so the strongest signals are more common in it than they were.
// glycan array binding signal (z-score) lookup, one value per entry
Please respond with just the number, no unit label.

binder	glycan array binding signal (z-score)
Intelectin 1 (Homo sapiens), Q8WWA0 (protein) MNQLSFLLFLIATTRGWSTDEANTYFKEWTCSSSPSLPRSCKEIKDECPSAFDGLYFLRTENGVIYQTFCDMTSGGGGWTLVASVHENDMRGKCTVGDRWSSQQGSKAVYPEGDGNWANYNTFGSAEAATSDDYKNPGYYDIQAKDLGIWHVPNKSPMQHWRNSSLLRYRTDTGFLQTLGHNLFGIYQKYPVKYGEGKCWTDNGPVIPVVYDFGDAQKTASYYSPYGQREFTAGFVQFRVFNNERAANALCAGMRVTGCNTEHHCIGGGGYFPEASPQQCGDFSGFDWSGYGTHVGYSSSREITEAAVLLFYR	2.09
MGL6A (Homo sapiens) (protein) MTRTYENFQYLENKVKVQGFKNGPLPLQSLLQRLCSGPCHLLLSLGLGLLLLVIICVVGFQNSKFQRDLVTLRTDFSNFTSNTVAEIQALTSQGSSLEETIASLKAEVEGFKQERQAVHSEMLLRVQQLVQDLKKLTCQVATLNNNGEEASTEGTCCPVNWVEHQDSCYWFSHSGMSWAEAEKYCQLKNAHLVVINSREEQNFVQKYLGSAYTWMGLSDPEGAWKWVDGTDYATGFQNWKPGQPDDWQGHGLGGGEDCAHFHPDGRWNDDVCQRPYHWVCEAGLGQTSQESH	4.13

Per the records, this binder ( Cohesin-mDCIR (Macaca mulatta) (protein) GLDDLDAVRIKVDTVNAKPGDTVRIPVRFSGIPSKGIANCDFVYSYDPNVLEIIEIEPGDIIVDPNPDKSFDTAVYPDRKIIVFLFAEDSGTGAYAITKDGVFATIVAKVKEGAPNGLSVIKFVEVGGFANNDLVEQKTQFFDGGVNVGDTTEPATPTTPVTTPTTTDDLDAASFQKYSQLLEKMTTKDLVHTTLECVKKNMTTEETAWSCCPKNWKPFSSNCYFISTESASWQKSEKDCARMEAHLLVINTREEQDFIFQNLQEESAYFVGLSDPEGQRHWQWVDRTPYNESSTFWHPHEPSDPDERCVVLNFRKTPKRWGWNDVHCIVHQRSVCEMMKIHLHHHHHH ) has glycan array binding signal (z-score) equal to 2.45
